- measured_target: T1, TIGIT (UniProt Q495A1 22-141, limits assumed)
- T1 construct: construct not described; also called T cell immunoreceptor with Ig and ITIM domains
- T1 sequence (looked up): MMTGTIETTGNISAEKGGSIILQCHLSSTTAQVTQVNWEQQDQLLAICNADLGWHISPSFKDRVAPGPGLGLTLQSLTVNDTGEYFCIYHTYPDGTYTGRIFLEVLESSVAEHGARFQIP
- assay_notes: SPR, VHH-V5-His
Field: label. Allowed values: 1 (RU < 80 RU) or -1 (RU >= 80 RU).

Prompt line: Lab note: confirm whether the reported RU for this binder is below 80 RU, equality not counting. binder: TIGIT-30-15 VHH-V5-His (VHH, not shown: V5 and His tags) VHH: EVQLVESGGGLVQAGGSLRLSCAASGFTFSGNWMGWFRQAPGKEREWVSGISSGGGRTYYADSVKGRFTISADNAKNTVYLQMNSLKPEDTAVYYCAADVWYGSTWRNWGQGTQVTVSS
Response line: 1

Prompt line: # check: RU < 80 RU for TIGIT-29-07 VHH-V5-His (VHH, not shown: V5 and His tags) VHH: EVQLVESGGGLVQAGGSLRLSCAASGSIFSNYAMGWFRQAPGKEREFVATISRGGTRTNYADSVKGRFTISADNAKNTVYLQMNSLKPEDTAVYYCAAAAWTIYAYNYWGQGTQVTVSS
Response line: 1

Prompt line: Quick check: does TIGIT-30-20 VHH-V5-His (VHH, not shown: V5 and His tags) VHH: EVQLVESGGGLVQAGGSLRLSCAASGPTFSIYDMGWFRQAPGKEREFVAVINWSRGSTFYADSVKGRFTISADNAKNTVYLQMNSLKPEDTAVYYCAAGVWSSLRHTAANWGQGTQVTVSS have RU under 80 RU?
Response line: 1

Prompt line: Criterion: RU strictly below 80 RU. Is it met by TIGIT-30-01 VHH-V5-His (VHH, not shown: V5 and His tags) VHH: EVQLVESGGGLVQAGGSLRLSCAASGFAFSSYWMGWFRQAPGKERELVAARNSGGNTNYADSVKGRFTISADNAKNTVYLQMNSLKPEDTAVYYCAADVWYGSTWRNWGQGTQVTVSS ?
Response line: -1

Prompt line: is_below(RU, 80 RU) for TIGIT-29-12 VHH-V5-His (VHH, not shown: V5 and His tags) VHH: EVQLVESGGGLVQAGGSLRLSCAASGSTFSSYAMGWFRQAPGKEREFVAAITWSGTRTNYADSVKGRFTISADNAKNTVYLQMNSLKPEDTAVYYCAAAAWTIYTYDSWGQGTQVTVSS ?
Response line: -1

Prompt line: Strictly below 80 RU: is that where RU of TIGIT-29-34 VHH-V5-His (VHH, not shown: V5 and His tags) VHH: EVQLVESGGGLVQAGGSLRLSCAASGFTFRNYAMGWFRQAPGKEREFVSSISSSSSRTSYADSVKGRFTISADNAKNTVYLQMNSLKPEDTAVYYCAARLWGTWTAGDYDYWGQGTQVTVSS sits?
Response line: -1

Prompt line: Hello, I'm reviewing records and need to know if RU of TIGIT-29-06 VHH-V5-His (VHH, not shown: V5 and His tags) VHH: EVQLVESGGGLVQAGGSLRLSCAASGGTFRSYVMGWFRQAPGKEREWVATINSSGSRTYYADSVKGRFTISADNAKNTVYLQMNSLKPEDTAVYYCAARPNYRDYEYWGQGTQVTVSS is below 80 RU. Could you check?
Response line: -1

Prompt line: Please let me know if TIGIT-29-30 VHH-V5-His (VHH, not shown: V5 and His tags) VHH: EVQLVESGGGLVQAGGSLRLSCAASGFTFSSYAMGWFRQAPGKEREFVAAITWSGTRTDYADSVKGRFTISADNAKNTVYLQMNSLKPEDTAVYYCAAAAWRYSEYDYWGQGTQVTVSS shows RU below 80 RU.
Response line: 1
